Source: paper PMC9352680

- experimentalSystem: T1, PUF4 RNA-binding domain (Saccharomyces cerevisiae, UniProt P25339 537-888)
- T1 sequence: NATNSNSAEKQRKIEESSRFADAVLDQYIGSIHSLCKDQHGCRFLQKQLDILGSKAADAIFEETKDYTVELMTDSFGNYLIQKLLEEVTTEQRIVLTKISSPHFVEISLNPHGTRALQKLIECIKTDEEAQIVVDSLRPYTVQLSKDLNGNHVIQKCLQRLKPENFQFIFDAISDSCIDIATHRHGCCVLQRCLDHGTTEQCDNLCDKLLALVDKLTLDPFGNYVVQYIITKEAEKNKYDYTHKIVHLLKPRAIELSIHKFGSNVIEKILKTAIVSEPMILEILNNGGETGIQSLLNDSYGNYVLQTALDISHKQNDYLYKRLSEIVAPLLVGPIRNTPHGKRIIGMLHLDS
- assayProcedure: Mg; RNA-MaP; 20 mM Na-HEPES pH 7.4, 30 mM KOAc, 0.75 mM MgCl2, 0.1% Tween-20, 5% glycerol, 0.1 mg/mL BSA, 2 mM DTT; 25 C; 0.0125-409.6 nM protein
- protocolConditions: tags: N-His6-TEV cleaved; C-SNAP kept, Cy3B-labelled; label: tethered on chip by stalled RNA polymerase
parameter: Kd

Here is how some binders turned out for Kd.
{"binder": "Ic_S2_P5E.1_K5.1_C5.1_H5.1_A5.1_[T6C]_F5.1_[T8G]_[T9C]_[A10C]_T5.1 (ssRNA) RNA: UUUGAUUAAUAUGAUAUCGUUCUUUCUUGUAUCAGCCUUCUUUCUCGAUAUCAUAUUAAUCUUU", "Kd": "389 nM"}
{"binder": "UCUCUUUGUAUUAUCCUAUCUCUU (ssRNA) [Ie_S1_P5E.1_K5.1_C5.1_H5.1_A5.1_F5.1_[+8CC]_T5.1]", "Kd": "26.3 nM"}
{"binder": "Ie_S2_P5E.1_K5.1_C5.1_H5.1_[+4TTCCT]_A5.1_F5.1_T5.1 (ssRNA) RNA: UUUGAUUAAUAUGAUAUCGUUCUUUCUUGUAUUCCUUUAUUAUUCUUUCUCGAUAUCAUAUUAAUCUUU", "Kd": "18.1 nM"}
{"binder": "UCUCUUUGUAGUUUAUCUCUU (ssRNA) [Ic_S1_P4E.1_K4.1_C4.1_H4.1_A4.1_[T5G]_[A6T]_F4.1_T4.1]", "Kd": "18.5 nM"}
{"binder": "Ib_S4_P4E.1_K4.1_C4.1_H4.1_A4.1_[A6T]_[T7G]_F4.1_T4.1 (ssRNA) RNA: UUUGACAACUGAUCGUUCUUUCUUGUAUUGUAUUCUUUCUCGAUCAGUUGUCUUU", "Kd": "5.79 nM"}

Then there is this binder:
Task: Give a short answer stating reported Kd for UCUCUUUGUAAUAUAUCUCUU (ssRNA) [Ic_S1_P4E.1_K4.1_C4.1_H4.1_A4.1_[T5A]_[A6T]_[T7A]_F4.1_T4.1] .
Result: 2.68 nM
